Data provenance: PubChem BioAssay AID1259407

Tested on: CCRIS mutagenicity, Ames/micronucleus/aberration tests
PROTOCOL: CCRIS mutagenicity studies
EXPERIMENTAL_PARAMETERS: Test System: AMES SALMONELLA TYPHIMURIUM; Strain/Indicator: TA1537; Metabolic Activation: HAMSTER, LIVER, S-9, AROCLOR 1254; Method: STANDARD PLATE
The source made the active and inactive calls. The rule behind the calls is not given here.
Classes used: 1 for active, 0 for inactive

[
  {
    "MOLECULE": "O=NN1CCC[C@H]1c1cccnc1",
    "TESTED_ON": "CCRIS mutagenicity, Ames/micronucleus/aberration tests",
    "DISCRETE_LABEL": 0
  },
  {
    "MOLECULE": "O=C1c2ccccc2CCc2ccccc21",
    "TESTED_ON": "CCRIS mutagenicity, Ames/micronucleus/aberration tests",
    "DISCRETE_LABEL": 0
  },
  {
    "MOLECULE": "CN(C)C(=O)Oc1ccc[n+](C)c1",
    "TESTED_ON": "CCRIS mutagenicity, Ames/micronucleus/aberration tests",
    "DISCRETE_LABEL": 0
  },
  {
    "MOLECULE": "C=CCc1ccc(O)cc1",
    "TESTED_ON": "CCRIS mutagenicity, Ames/micronucleus/aberration tests",
    "DISCRETE_LABEL": 0
  },
  {
    "MOLECULE": "CCCCC=O",
    "TESTED_ON": "CCRIS mutagenicity, Ames/micronucleus/aberration tests",
    "DISCRETE_LABEL": 0
  },
  {
    "MOLECULE": "N#Cc1ccccc1",
    "TESTED_ON": "CCRIS mutagenicity, Ames/micronucleus/aberration tests",
    "DISCRETE_LABEL": 0
  },
  {
    "MOLECULE": "CCN(N=O)c1ccccc1",
    "TESTED_ON": "CCRIS mutagenicity, Ames/micronucleus/aberration tests",
    "DISCRETE_LABEL": 0
  },
  {
    "MOLECULE": "Nc1ccc(N=Nc2ccc3c(c2)C(=O)/C(=N/Nc2ccc(Nc4ccc(N/N=C5/C(=O)c6cc(N=Nc7ccc(N)cc7N)ccc6C=C5S(=O)(=O)O)cc4S(=O)(=O)O)cc2)C(S(=O)(=O)O)=C3)c(N)c1",
    "TESTED_ON": "CCRIS mutagenicity, Ames/micronucleus/aberration tests",
    "DISCRETE_LABEL": 1
  },
  {
    "MOLECULE": "CC(C)CCON=O",
    "TESTED_ON": "CCRIS mutagenicity, Ames/micronucleus/aberration tests",
    "DISCRETE_LABEL": 0
  },
  {
    "MOLECULE": "C[C@H]1CCCC(=O)CCC/C=C/c2cc(O)cc(O)c2C(=O)O1",
    "TESTED_ON": "CCRIS mutagenicity, Ames/micronucleus/aberration tests",
    "DISCRETE_LABEL": 0
  },
  {
    "MOLECULE": "NCc1cccc(CN)c1",
    "TESTED_ON": "CCRIS mutagenicity, Ames/micronucleus/aberration tests",
    "DISCRETE_LABEL": 0
  },
  {
    "MOLECULE": "O=C(Cl)c1ccc([N+](=O)[O-])cc1",
    "TESTED_ON": "CCRIS mutagenicity, Ames/micronucleus/aberration tests",
    "DISCRETE_LABEL": 0
  },
  {
    "MOLECULE": "C=C(C)C(=O)OCCOC(=O)C(=C)C",
    "TESTED_ON": "CCRIS mutagenicity, Ames/micronucleus/aberration tests",
    "DISCRETE_LABEL": 0
  },
  {
    "MOLECULE": "CCCCC(CC)COC(=O)c1ccc(N(C)C)c([N+](=O)[O-])c1 (configuration not stated)",
    "TESTED_ON": "CCRIS mutagenicity, Ames/micronucleus/aberration tests",
    "DISCRETE_LABEL": 1
  },
  {
    "MOLECULE": "Clc1cc(Cl)c(Cl)cc1Cl",
    "TESTED_ON": "CCRIS mutagenicity, Ames/micronucleus/aberration tests",
    "DISCRETE_LABEL": 0
  },
  {
    "MOLECULE": "CCCCC/C=C\\C/C=C\\CCCCCCCC(=O)O",
    "TESTED_ON": "CCRIS mutagenicity, Ames/micronucleus/aberration tests",
    "DISCRETE_LABEL": 0
  },
  {
    "MOLECULE": "COc1cc([N+](=O)[O-])ccc1N=NC(C(C)=O)C(=O)Nc1ccccc1OC (configuration not stated)",
    "TESTED_ON": "CCRIS mutagenicity, Ames/micronucleus/aberration tests",
    "DISCRETE_LABEL": 0
  },
  {
    "MOLECULE": "Cc1cc(C)c(S(=O)(=O)O)cc1N=Nc1cc(S(=O)(=O)O)c2ccccc2c1O",
    "TESTED_ON": "CCRIS mutagenicity, Ames/micronucleus/aberration tests",
    "DISCRETE_LABEL": 0
  },
  {
    "MOLECULE": "O=C(CCc1ccc(O)cc1)c1c(O)cc(O)cc1O",
    "TESTED_ON": "CCRIS mutagenicity, Ames/micronucleus/aberration tests",
    "DISCRETE_LABEL": 0
  },
  {
    "MOLECULE": "CC(C)C1=CC2=CC[C@@H]3[C@](C)(CCC[C@@]3(C)C(=O)O)[C@H]2CC1",
    "TESTED_ON": "CCRIS mutagenicity, Ames/micronucleus/aberration tests",
    "DISCRETE_LABEL": 0
  },
  {
    "MOLECULE": "O=C1c2ccccc2C(=O)c2ccccc21",
    "TESTED_ON": "CCRIS mutagenicity, Ames/micronucleus/aberration tests",
    "DISCRETE_LABEL": 0
  },
  {
    "MOLECULE": "Nc1ncc([N+](=O)[O-])s1",
    "TESTED_ON": "CCRIS mutagenicity, Ames/micronucleus/aberration tests",
    "DISCRETE_LABEL": 0
  }
]
